Data provenance is patent US8026218B2.

test system: μ opioid receptors (GPI); assay: Guinea pig isolated ileum (GPI) assay, opioid agonist; details: Table 39; read-out: GPI/LMMP opioid(mu) agonist (IC50; nM);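 further: inhibition of electrically evoked contractions (0.1 Hz, 0.4 msec, supramaximal voltage) in organ baths at 37 °C, contraction height 3 min after each cumulative dose versus the 1 min before dosing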
Peptide text beside a SMILES is read from it.
Give log10(IC50) for every item shown.
In plain terms, each number is the log10 of measured IC50 in nM.

Example entries and their recorded answers appear below.
{"Compound": "CSCC[C@H](NC(=O)[C@H](Cc1ccccc1)NC(=O)CNC(=O)[C@@H](C)NC(=O)[C@@H](N)Cc1c(C)cc(O)cc1C)C(=O)N1CCC[C@H]1C(=O)N[C@@H](CC(C)C)C(=O)N[C@@H](Cc1c[nH]c2ccccc12)C(=O)OCc1cc(C(F)(F)F)cc(C(F)(F)F)c1", "Result Value": 2.00}
{"Compound": "CSCC[C@H](NC(=O)[C@H](Cc1ccccc1)NC(=O)CNC(=O)[C@@H](C)NC(=O)[C@@H](N)Cc1c(C)cc(O)cc1C)C(=O)N1CCC[C@H]1C(=O)N[C@@H](CC(C)C)C(=O)N[C@@H](Cc1c[nH]c2ccccc12)C(=O)NCc1cc(C(F)(F)F)cc(C(F)(F)F)c1", "Result Value": 1.27}
{"Compound": "CSCC[C@H](NC(=O)[C@H](Cc1ccccc1)NC(=O)CNC(=O)[C@@H](C)NC(=O)[C@@H](N)Cc1ccc(O)cc1)C(=O)N1CCC[C@H]1C(=O)N[C@@H](CC(C)C)C(=O)N[C@@H](Cc1c[nH]c2ccccc12)C(=O)NCc1cc(C(F)(F)F)cc(C(F)(F)F)c1", "Result Value": 2.69}
{"Compound": "CCCC[C@H](NC(=O)[C@H](Cc1ccccc1)NC(=O)CNC(=O)[C@@H](C)NC(=O)[C@@H](N)Cc1ccc(O)cc1)C(=O)N1CCC[C@H]1C(=O)N[C@@H](CC(C)C)C(=O)N[C@@H](Cc1c[nH]c2ccccc12)C(=O)OCc1cc(C(F)(F)F)cc(C(F)(F)F)c1", "Result Value": 2.57}

Batch request: log10(IC50) per item, same order as input.
1. CSCC[C@H](NC(=O)[C@H](Cc1ccccc1)NC(=O)CNC(=O)[C@@H](C)NC(=O)[C@@H](N)Cc1ccc(O)cc1)C(=O)N1CCC[C@H]1C(=O)N[C@@H](CC(C)C)C(=O)N[C@@H](Cc1c[nH]c2ccccc12)C(=O)N(C)Cc1ccccc1
2. CSCC[C@H](NC(=O)[C@H](Cc1ccccc1)NC(=O)CNC(=O)[C@@H](C)NC(=O)[C@@H](N)Cc1ccc(O)cc1)C(=O)N1CCC[C@H]1C(=O)N[C@@H](CC(C)C)C(=O)N[C@@H](Cc1c[nH]c2ccccc12)C(=O)NCc1ccccc1
3. CSCC[C@H](NC(=O)[C@H](Cc1ccccc1)NC(=O)CNC(=O)[C@@H](C)NC(=O)[C@@H](N)Cc1ccc(O)cc1)C(=O)N1CCC[C@H]1C(=O)N[C@@H](CC(C)C)C(=O)N[C@@H](Cc1c[nH]c2ccccc12)C(=O)OCc1ccccc1
4. CCCC[C@@H]1NC(=O)[C@H](Cc2ccccc2)NC(=O)CNC(=O)[C@H](NC(=O)[C@@H](N)Cc2ccc(O)cc2)CSSC[C@@H](C(=O)N[C@@H](Cc2c[nH]c3ccccc23)C(=O)NCc2cc(C(F)(F)F)cc(C(F)(F)F)c2)NC(=O)[C@@H]2CCCN2C1=O [TY035, [D-Cys^2, Cys^7]TY027] (HELM PEPTIDE1{Y.[dC].G.F.[Nle].P.C.W.[FC(F)(F)c1cc(CN[*:1])cc(C(F)(F)F)c1]}$PEPTIDE1,PEPTIDE1,2:R3-7:R3$$$V2.0; N-terminus assumed)
5. CC(C)C[C@H](NC(=O)[C@@H]1CCCN1C(=O)[C@H](CC(C)C)NC(=O)[C@H](Cc1ccccc1)NC(=O)CNC(=O)[C@@H](C)NC(=O)[C@@H](N)Cc1ccc(O)cc1)C(=O)N[C@@H](Cc1c[nH]c2ccccc12)C(=O)OCc1cc(C(F)(F)F)cc(C(F)(F)F)c1

Reply:
1. 1.94
2. 1.79
3. 1.35
4. 3.00
5. 2.53

###

molecular target: δ opioid receptors (MVD) (Mus musculus, UniProt P32300); construct: from tissue; host or cells: mouse (ICR) isolated vas deferens; experiment: Mouse isolated vas deferens (MVD) assay, opioid agonist
Sequence (P32300 whole entry): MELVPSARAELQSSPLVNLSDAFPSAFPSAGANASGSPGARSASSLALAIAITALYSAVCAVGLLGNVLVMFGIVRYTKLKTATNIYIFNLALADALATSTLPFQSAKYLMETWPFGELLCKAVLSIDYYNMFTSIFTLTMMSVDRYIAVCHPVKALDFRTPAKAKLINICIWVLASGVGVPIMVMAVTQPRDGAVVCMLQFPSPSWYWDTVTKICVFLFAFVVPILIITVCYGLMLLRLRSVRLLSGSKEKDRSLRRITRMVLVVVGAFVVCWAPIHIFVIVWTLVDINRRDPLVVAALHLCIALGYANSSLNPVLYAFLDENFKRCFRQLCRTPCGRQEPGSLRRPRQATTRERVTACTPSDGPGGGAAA
Peptide text beside a SMILES is read from it.
Attribute Measured: pIC50
Numbers only, as −log10 of the molar value.

{"Compound": "CC[C@H](NC(=O)[C@H](Cc1ccccc1)NC(=O)CNC(=O)[C@@H](C)NC(=O)[C@@H](N)Cc1ccc(O)cc1)C(=O)N[C@@H](Cc1c[nH]c2ccccc12)C(=O)OCc1cc(C(F)(F)F)cc(C(F)(F)F)c1 [NP33] (HELM PEPTIDE1{Y.[dA].G.F.[Abu].W.[FC(F)(F)c1cc(CO[*:1])cc(C(F)(F)F)c1]}$$$$V2.0; N-terminus assumed)", "pIC50": 7.91}

Batch request: pIC50 per item, same order as input.
1. CCCC[C@H](NC(=O)[C@H](Cc1ccccc1)NC(=O)CNC(=O)[C@@H](C)NC(=O)[C@@H](N)Cc1ccc(O)cc1)C(=O)N1CCC[C@H]1C(=O)N[C@@H](CC(C)C)C(=O)N[C@@H](COC1O[C@H](CO)[C@@H](O)[C@H](O)[C@H]1O)C(=O)N[C@@H](Cc1c[nH]c2ccccc12)C(=O)NCc1cc(C(F)(F)F)cc(C(F)(F)F)c1 (stereo partly shown)
2. CCCC[C@H](NC(=O)[C@H](Cc1ccccc1)NC(=O)CNC(=O)[C@@H](C)NC(=O)[C@@H](N)Cc1ccc(O)cc1)C(=O)N[C@@H](COC1O[C@H](CO)[C@@H](O)[C@H](O)[C@H]1O)C(=O)N[C@@H](CC(C)C)C(=O)N[C@@H](Cc1c[nH]c2ccccc12)C(=O)NCc1cc(C(F)(F)F)cc(C(F)(F)F)c1 (stereo partly shown)
3. CC(C)C[C@H](NC(=O)[C@H](Cc1ccccc1)NC(=O)CNC(=O)[C@@H](C)NC(=O)[C@@H](N)Cc1ccc(O)cc1)C(=O)N[C@@H](Cc1c[nH]c2ccccc12)C(=O)OCc1cc(C(F)(F)F)cc(C(F)(F)F)c1 [NP37] (HELM PEPTIDE1{Y.[dA].G.F.L.W.[FC(F)(F)c1cc(CO[*:1])cc(C(F)(F)F)c1]}$$$$V2.0; N-terminus assumed)
4. CCCC[C@H](NC(=O)[C@H](Cc1ccccc1)NC(=O)CNC(=O)[C@@H](C)NC(=O)[C@@H](N)Cc1ccc(O)cc1)C(=O)N1CCC[C@H]1C(=O)N[C@@H](CC(C)C)C(=O)N[C@@H](Cc1c[nH]c2ccccc12)C(=O)OCc1cc(C(F)(F)F)cc(C(F)(F)F)c1
5. C[C@@H](NC(=O)[C@@H](N)Cc1ccc(O)cc1)C(=O)NCC(=O)N[C@@H](Cc1ccc(F)cc1)C(=O)OCc1cc(C(F)(F)F)cc(C(F)(F)F)c1
6. C[C@@H](NC(=O)[C@@H](N)Cc1ccc(O)cc1)C(=O)NCC(=O)N[C@@H](Cc1ccccc1)C(=O)NCCCC(=O)N[C@@H](Cc1c[nH]c2ccccc12)C(=O)OCc1cc(C(F)(F)F)cc(C(F)(F)F)c1 [NP34] (HELM PEPTIDE1{Y.[dA].G.F.[O=C(CCCN[*:1])[*:2]].W.[FC(F)(F)c1cc(CO[*:1])cc(C(F)(F)F)c1]}$$$$V2.0; N-terminus assumed)

Reply:
1. 7.76
2. 7.74
3. 7.59
4. 7.77
5. 6.74
6. 7.17

###

biological target: rat μ opioid receptors (rMOR) (Rattus norvegicus); construct: expressed in transfected cells; host or cells: HN9.10 neuroblastoma cell line, pCDNA3, neomycin-selected clones; experiment: biochemical; assay type: biochemical; details: Table 32; read-out: GTP rMOR EC50
Sequence (P33535 whole entry): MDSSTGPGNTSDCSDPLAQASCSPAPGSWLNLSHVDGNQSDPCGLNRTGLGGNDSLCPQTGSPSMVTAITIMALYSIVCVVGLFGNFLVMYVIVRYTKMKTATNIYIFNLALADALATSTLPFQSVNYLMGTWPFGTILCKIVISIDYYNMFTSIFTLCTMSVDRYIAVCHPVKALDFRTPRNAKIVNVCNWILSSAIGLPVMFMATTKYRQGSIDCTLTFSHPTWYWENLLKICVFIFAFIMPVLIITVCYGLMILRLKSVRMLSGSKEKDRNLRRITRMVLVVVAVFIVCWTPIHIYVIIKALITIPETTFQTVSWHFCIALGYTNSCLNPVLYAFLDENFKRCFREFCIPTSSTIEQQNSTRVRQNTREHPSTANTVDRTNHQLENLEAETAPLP
Peptide text beside a SMILES is read from it.
Give pEC50 for every item shown.
Give bare numbers, as −log10 of the molar value.

Example entries and their recorded answers appear below.
{"Molecule": "CC[C@H](NC(=O)[C@H](Cc1ccccc1)NC(=O)CNC(=O)[C@@H](C)NC(=O)[C@@H](N)Cc1ccc(O)cc1)C(=O)N[C@@H](Cc1c[nH]c2ccccc12)C(=O)OCc1cc(C(F)(F)F)cc(C(F)(F)F)c1 [NP33] (HELM PEPTIDE1{Y.[dA].G.F.[Abu].W.[FC(F)(F)c1cc(CO[*:1])cc(C(F)(F)F)c1]}$$$$V2.0; N-terminus assumed)", "pEC50": 8.07}
{"Molecule": "C[C@@H](NC(=O)[C@@H](N)Cc1ccc(O)cc1)C(=O)NCC(=O)N[C@@H](Cc1ccccc1)C(=O)NC(C)(C)C(=O)N[C@@H](Cc1c[nH]c2ccccc12)C(=O)OCc1cc(C(F)(F)F)cc(C(F)(F)F)c1 [NP41] (HELM PEPTIDE1{Y.[dA].G.F.[Aib].W.[FC(F)(F)c1cc(CO[*:1])cc(C(F)(F)F)c1]}$$$$V2.0; N-terminus assumed)", "pEC50": 6.98}
{"Molecule": "C[C@@H](NC(=O)[C@H](Cc1ccccc1)NC(=O)CNC(=O)[C@@H](C)NC(=O)[C@@H](N)Cc1ccc(O)cc1)C(=O)N[C@@H](Cc1c[nH]c2ccccc12)C(=O)OCc1cc(C(F)(F)F)cc(C(F)(F)F)c1 [NP40] (HELM PEPTIDE1{Y.[dA].G.F.[dA].W.[FC(F)(F)c1cc(CO[*:1])cc(C(F)(F)F)c1]}$$$$V2.0; N-terminus assumed)", "pEC50": 7.03}

Ask: # input molecule: C[C@@H](NC(=O)[C@@H](N)Cc1ccc(O)cc1)C(=O)NCC(=O)N[C@@H](Cc1ccccc1)C(=O)NCCCC(=O)N[C@@H](Cc1c[nH]c2ccccc12)C(=O)OCc1cc(C(F)(F)F)cc(C(F)(F)F)c1 [NP34] (HELM PEPTIDE1{Y.[dA].G.F.[O=C(CCCN[*:1])[*:2]].W.[FC(F)(F)c1cc(CO[*:1])cc(C(F)(F)F)c1]}$$$$V2.0; N-terminus assumed) ; wanted: its pEC50
Reply: 7.76
